reported endpoint: melting point

Worked cases, melting point given:
# molecule, melting point
rows = [
    ("CC1OC(n2cc(F)c(NC(=O)c3ccc(Cl)cc3)nc2=O)C(O)C1O (centres undefined)", "142 to 146 °C"),
    ("NS(=O)(=O)c1ccc(C=Nc2ccc(SSc3ccc(N=Cc4ccc(S(N)(=O)=O)cc4)cc3)cc2)cc1", "200 to 230 °C"),
    ("COCc1c[nH]c(-c2ccc(OCC(O)CO)cc2)n1 (centres undefined)", "154 to 156 °C"),
]

# melting point lookup, item CC(=NO)C1=CCCN(Cc2ccccc2)C1 103 to 105 °C

Continue with CC(=NOCCOc1ccc(CC2SC(=O)N(C(c3ccccc3)(c3ccccc3)c3ccccc3)C2=O)cc1)c1ccc(-c2ccccc2)nc1 (centres undefined) 186 to 187 °C

Continue with Fc1ccc2c(CCCN(c3ccncc3)c3csc4cccc(Cl)c34)noc2c1 135 to 136 °C

Continue with O=[N+]([O-])c1c(Br)nn(Cc2ccc(Cl)cc2)c1Br 109 °C

Continue with CCN(CC)c1nc(N)nc(-c2cc(Cl)ccc2Cl)n1 137 to 138 °C

Continue with OC(Cc1ccccc1)c1nc(-c2ccncc2)cs1 (centres undefined) 120 to 122 °C

---

Reported melting point values follow for various compounds

Worked cases, melting point given:
# compound, melting point
rows = [
    ("O=Cc1ccc(OCc2coc(-c3ccccc3)n2)cc1", "94 to 96 °C"),
    ("Cc1ccc(S(=O)(=O)NC(=O)N2CC2C#N)cc1 (configuration not stated)", "156 to 158 °C"),
    ("O=C(NCc1ccc2c(c1)OCO2)c1ccc2[nH]c(=O)n(Cc3ccc(Cl)cc3)c(=O)c2c1", "290 °C"),
    ("COc1cc2c(cc1OC)CC(NCC(N)=O)C2", "135 to 138 °C"),
    ("CCC1CCC2(C)C(=CCC3C4CCC(=O)C4(C)CCC32)C1 (configuration not stated)", "73 to 75 °C"),
    ("CC(C)[C@H](N)C(=O)NC(Cc1ccccc1)C(O)C(Cc1ccccc1)NC(=O)[C@@H](NC(=O)OCc1ccccc1)C(C)C (some centres not stated)", "126 to 127 °C"),
]

# melting point lookup, item CCCCC(CC)CNCCCCOc1ccc2ccccc2c1 (configuration not stated) 94 °C

---

Reported melting point values follow for various compounds

Worked cases, melting point given:
# smiles text, observed measurement
measured = [
    ("Cc1cnc(I)nc1Oc1cc(C(F)(F)F)nn1C", "94 °C"),
    ("COc1ccc([N+](=O)[O-])cc1N1CCNCC1", "84 to 87 °C"),
    ("CCOC(=O)c1cnn(-c2cc(Cl)cc(Cl)c2)c1C(N)=O", "164 to 166 °C"),
    ("CC(C)C[C@H](NC(=O)[C@H](Cc1ccccc1)NC(=O)C1CCCC1)C(=O)O", "148 to 151 °C"),
]

// below: melting point requested for another compound
# melting point lookup, item Cc1cc(C(C)(C)C)cc(C)c1S(=O)(=O)C[N+](=O)[O-] 90 to 92 °C

---

Reported melting point values follow for various compounds

Worked cases, melting point given:
# compound, observed measurement
data = [
    ("CCOC(=O)c1cn(C)c2sc(CN3CCOCC3)c(C)c2c1=O", "172 to 173 °C"),
    ("COc1cc2c(cc1OC)CC(=O)N(CC1CCCNC1)CC2 (stereo not given)", "152 to 156 °C"),
]

# melting point lookup, item Cc1ccc(-c2nnc3c(n2)CCCC3)nc1-c1ccc(F)cc1 105 °C

Continue with O=c1c2cc(F)c(F)cc2n(-c2ccc(F)c(Cl)c2)c(=O)n1OCc1ccccc1 184 to 186 °C

Continue with N#Cc1ncccc1Oc1ccccc1 79 to 82 °C

Continue with N#CN1CCC(C2c3ccccc3NN2c2ccccc2Cl)CC1 (stereo not given) 109 to 111 °C

Continue with Cc1cc(-c2cc(C(F)(F)F)n3ncc(-c4nc(-c5ccc(N)nc5)no4)c3n2)ccc1C(F)(F)F 220 °C

Continue with COc1ccc(CCOCCCCCCNCC(O)c2ccc(O)c(CCO)c2)cc1 (stereo not given) 84 to 85 °C

Continue with O=C(NC1CCCCC1)c1ccc(-c2cnc(-c3ccc(NC(=O)c4ccccn4)cc3)[nH]2)cc1 250 to 252 °C

Continue with O=[PH]1Cc2ccc3ccccc3c2-c2c(ccc3ccccc23)C1 242 to 246 °C

Continue with CN(C)C1CCc2[nH]c3ccc(CO)cc3c2C1 (stereo not given) 195 to 197 °C

Continue with Cc1cc(OCCCN2CCC[C@H]2C)ccc1C1=NNC(=O)CC1 121 to 123 °C

Continue with CCCCCCCCCCC1(CCCCCCCCCC)c2cc(Br)ccc2-c2ccc(C=O)cc21 45 to 47 °C

Continue with COc1cc(Cl)c(N)cc1-c1nc(C)c(-c2cccnc2)[nH]1 173 to 175 °C

Continue with NNC(=O)C(F)(F)C(F)(F)C(F)(F)F 138 to 142 °C

Data credit: a melting point compilation (Tetko et al.; mined from patent text by program, amines drawn as free bases though some values may be those of a salt)
